# System: HCC1806
# assay remarks: Antiproliferative activity against human HCC1806 cells after 72 hrs by MTT assay
# Format: functional, cell-based
# stated conditions: HCC1806, 72 h
IC50 values, listed per item
I only need the number, in nM, no unit after it.

C=C1C(=O)[C@]23[C@H](O)[C@H]1CC[C@H]2[C@]12C=CCC(C)(C)[C@H]1[C@H](O)[C@@]3(O)OC2 = 2350
C=C1C(=O)[C@@]23C(=O)[C@@H]4OC[C@]5(C=CCC(C)(C)[C@@H]45)[C@@H]2CC[C@@H]1[C@H]3OC(=O)c1cnccn1 = 730
C=C1C(=O)[C@@]23C(=O)[C@@H]4OC[C@]5(C=CCC(C)(C)[C@@H]45)[C@@H]2CC[C@@H]1[C@H]3OC(=O)/C=C/c1ccncc1F = 1140

State the recorded IC50 for this entry: C=C1C(=O)[C@@]23C(=O)[C@@H]4OC[C@]5(C=CCC(C)(C)[C@@H]45)[C@@H]2CC[C@@H]1[C@H]3OC(=O)c1ccncc1
1390

Entry under review: C=C1C(=O)[C@@]23C(=O)[C@@H]4OC[C@@]5([C@H]4C(C)(C)CC[C@@H]5O)[C@@H]2CC[C@@H]1[C@H]3O . Reported IC50?
2420

Fill in: IC50 of C=C1C(=O)[C@@]23C(=O)[C@@H]4OC[C@]5(C=CCC(C)(C)[C@@H]45)[C@@H]2CC[C@@H]1[C@H]3OC(=O)/C=C/c1ccc(Cl)cc1 is ___
1970

Value lookup for IC50; key = C=C1C(=O)[C@@]23C(=O)[C@@H]4OC[C@]5(C=CCC(C)(C)[C@@H]45)[C@@H]2CC[C@@H]1[C@H]3OC(=O)/C=C/c1ccncc1
180

For the molecule shown here, C=C1C(=O)[C@@]23C(=O)[C@@H]4OC[C@]5(C=CCC(C)(C)[C@@H]45)[C@@H]2CC[C@@H]1[C@H]3OC(=O)/C=C/c1ccccn1 , give the reported IC50.
600

GET /values?readout=IC50&item= C=C1C(=O)[C@@]23C(=O)[C@@H]4OC[C@]5(C=CCC(C)(C)[C@@H]45)[C@@H]2CC[C@@H]1[C@H]3OC(=O)/C=C(\C)c1ccccc1
1850

So what does the record say about IC50 for C=C1C(=O)[C@@]23C(=O)[C@@H]4OC[C@]5(C=CCC(C)(C)[C@@H]45)[C@@H]2CC[C@@H]1[C@H]3OC(=O)/C=C/c1ccc2c(c1)OCO2 ?
3020

I am curious: what IC50 value has been reported for C=C1C(=O)[C@@]23C(=O)[C@@H]4OC[C@]5(C=CCC(C)(C)[C@@H]45)[C@@H]2CC[C@@H]1[C@H]3OC(=O)C=C(C)C ?
3060

// lookup IC50 for C=C1C(=O)[C@@]23C(=O)[C@@H]4OC[C@]5(C=CCC(C)(C)[C@@H]45)[C@@H]2CC[C@@H]1[C@H]3OC(=O)/C=C/c1cccnc1
310

What IC50 value was documented for this molecule, C=C1C(=O)[C@@]23C(=O)[C@@H]4OC[C@]5(C=CCC(C)(C)[C@@H]45)[C@@H]2CC[C@@H]1[C@H]3OC(C)=O ?
1000

Any idea what its IC50 is? The molecule is C=C1C(=O)[C@@]23C(=O)[C@@H]4OC[C@]5(C=CCC(C)(C)[C@@H]45)[C@@H]2CC[C@@H]1[C@H]3OC(=O)c1cccnc1
2730

Tell me the measured IC50 of C=C1C(=O)[C@@]23C(=O)[C@@H]4OC[C@]5(C=CCC(C)(C)[C@@H]45)[C@@H]2CC[C@@H]1[C@H]3OC(=O)C1CC1 , please.
1730
